Origin of measurements: PubChem BioAssay AID1159580

Quick reference: normalized growth of the listed items.
protocol: chemical genetic growth profiling, strain panel (AID 1159580);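 note: tested at 20 µM; growth read once vehicle control cultures reached saturation at 30 °C; 1 = growth at the plate median or of vehicle wells; lower values mean less growth of the strain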
recordedConditions: S. cerevisiae deletion strains, growth OD, locus YKL085W, strain MDH1, stronger effect = lower value
Screen size: about 5,500 compounds; about 2,000 (36%) were called active. Not shown: some 18% with an inconclusive outcome. Some of the results follow.
In your answer, state the number alone without any accompanying words.

Some solved cases for reference:
[[record]]
molecule = "CC1(C)O[C@@H]2CC3C4C[C@H](F)C5=CC(=O)CC[C@]5(C)C4[C@@H](O)C[C@]3(C)[C@]2(C(=O)CO)O1 (some centres not stated)"
experimentalvalue = 1

[[record]]
molecule = "CCCc1nn(C)c2c(=O)[nH]c(-c3cc(S(=O)(=O)N4CCN(C)CC4)ccc3OCC)nc12"
experimentalvalue = 0.996

[[record]]
molecule = "CC(=O)O[C@@H]1CC2C(C)(C)CCC[C@]2(C)C2CC[C@]3(C)C(=CC(=O)O[C@H]3c3ccoc3)[C@@]21C (some centres not stated)"
experimentalvalue = 1.01

[[record]]
molecule = "COc1c(O)cc2c(c1O)[C@H]1O[C@H](CO)[C@@H](O)[C@H](O)[C@@H]1OC2=O"
experimentalvalue = 1

[[record]]
molecule = "Cc1c(OCC(F)(F)F)ccnc1CS(=O)c1nc2ccccc2[nH]1 (configuration not stated)"
experimentalvalue = 0.939

[[record]]
molecule = "C/C=C(/C)C(=O)O[C@@H]1Cc2c(ccc3ccc(=O)oc23)OC1(C)C"
experimentalvalue = 0.978

[[record]]
molecule = "COC1=CC(C)[C@@H]2C[C@H]3OC(=O)C[C@H]4C(C)=C(OC)C(=O)C([C@@]34C)[C@@]2(C)C1=O (some centres not stated)"
experimentalvalue = 1

[[record]]
molecule = "O=C(O)CN(CCN(CC(=O)O)CC(=O)O)CC(=O)O"
experimentalvalue = 1.03


[in] Endpoint output: normalized growth of COC1=CC(=O)C=C(OC)C1=O . Value?
[out] 0.981

[in] GET /values?readout=normalized growth&item= O=c1c(O)cccc2c(C3Oc4cc(O)cc(O)c4CC3O)cc(O)c(O)c12 (configuration not stated)
[out] 0.303

[in] Query: normalized growth; subject: COc1cc(C(=O)O)cc(OC)c1OC
[out] 1.07
